// IC50 lookup, one value per entry
- SYSTEM: human recombinant GPR65 (Homo sapiens, UniProt Q8IYL9)
- Sequence (Q8IYL9 whole entry): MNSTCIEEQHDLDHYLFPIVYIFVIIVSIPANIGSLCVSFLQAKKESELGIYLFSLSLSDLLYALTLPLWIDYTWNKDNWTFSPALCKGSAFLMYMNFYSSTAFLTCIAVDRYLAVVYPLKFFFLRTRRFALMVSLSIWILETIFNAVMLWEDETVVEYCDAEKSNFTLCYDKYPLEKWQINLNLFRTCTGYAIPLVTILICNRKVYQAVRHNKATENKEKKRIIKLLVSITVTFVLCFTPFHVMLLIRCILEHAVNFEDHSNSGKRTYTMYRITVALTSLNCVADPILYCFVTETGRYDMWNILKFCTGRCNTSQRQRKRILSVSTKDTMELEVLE
- EXPERIMENT SUMMARY: Human GPR65 cAMP HTRF antagonist assay
- Assay type: cell-based
- CONDITION LABEL: 1321N1-hrGPR65 cells, assay pH of 7.2, cAMP HTRF; read-out: hGPR65 IC50

COMPOUND | IC50
Cn1nc(NC(=O)N2[C@H]3CC[C@@H]2c2ccnc(F)c2C3)c2ccccc21 [Compound 34] | > 5000 nM
N#Cc1cnc(NC(=O)N2[C@H]3CC[C@@H]2c2ccnc(F)c2C3)cc1Cl [Compound 46] | < 500 nM
O=C(Nc1cc(Cl)c(Cl)cn1)N1[C@H]2CC[C@@H]1c1ccnc(F)c1C2 [Compound 2] | < 500 nM
O=C(Nc1ccc(Oc2ccccc2)nc1)N1C2CCC1c1ccnc(F)c1C2 (racemic) [Compound 8] | 500 to 5000 nM
O=C(Nc1ccc(OC(F)F)cn1)N1[C@H]2CC[C@@H]1c1ccnc(F)c1C2 [Compound 39] | 500 to 5000 nM

Q: What measured IC50 goes with O=C(Nc1cnc(-c2ccccc2)s1)N1[C@H]2CC[C@@H]1c1ccnc(F)c1C2 [Compound 29] ?
A: < 500 nM

Q: What do we get for O=C(Nc1cc(Cl)c(C(F)(F)F)cn1)N1[C@H]2CC[C@@H]1c1c[nH]c(=O)cc1C2 [Compound 17] ?
A: < 500 nM

Q: What do we get for Cc1nnc(NC(=O)N2[C@H]3CC[C@@H]2c2ccnc(F)c2C3)s1 [Compound 43] ?
A: > 5000 nM

----------
- SYSTEM: human recombinant GPR65 (Homo sapiens, UniProt Q8IYL9)
- EXPERIMENT SUMMARY: Human GPR65 cAMP HTRF antagonist assay
- Format: cell-based
// IC50 lookup, one value per entry

Q: What measured IC50 goes with O=C(Nc1cc(Cl)c(Cl)cn1)N1C2CCC1c1c[nH]c(=O)c(F)c1C2 (racemic) ?
A: < 500 nM

Q: What do we get for O=C(Nc1cncc(Cl)c1)N1C2CCC1c1ccnc(F)c1C2 (racemic) ?
A: < 500 nM

----------
- SYSTEM: human recombinant GPR65 (Homo sapiens, UniProt Q8IYL9)
- EXPERIMENT SUMMARY: Human GPR65 cAMP HTRF antagonist assay
- Type: cell-based
- CONDITION LABEL: 1321N1-hrGPR65 cells, assay pH of 7.2, cAMP HTRF; read-out: hGPR65 IC50
- Source text: The “Human GPR65 cyclic adenosine monophosphate (cAMP) Homogeneous Time Resolved Fluorescence (HTRF) antagonist assay”, or simply “cAMP assay”, as described below, can be used to measure the potency of GPR65 modulators, which is expressed as the concentration of compound required to reduce the increase in cAMP concentration upon GPR65 activation by 50% (i.e. an IC50). Human GPR65 Cyclic Adenosine Monophosphate (cAMP) Homogeneous Time Resolved Fluorescence (HTRF) Antagonist Assay Procedure […]
PROPERTY NAME: IC50

Example compounds with recorded IC50:
COMPOUND | IC50
O=C(Nc1nnc(-c2ccccc2)o1)N1[C@H]2CC[C@@H]1c1ccnc(F)c1C2 | 500 to 5000 nM
O=C(Nc1ccc2nonc2c1)N1[C@H]2CC[C@@H]1c1ccnc(F)c1C2 | 500 to 5000 nM
O=C(Nc1noc(-c2ccccc2)n1)N1[C@H]2CC[C@@H]1c1ccnc(F)c1C2 | < 500 nM
O=C(Nc1cc(C(F)(F)F)no1)N1[C@H]2CC[C@@H]1c1ccnc(F)c1C2 | < 500 nM
O=C(Nc1cnc(C(F)(F)F)cn1)N1C2CCC1c1cncnc1C2 (racemic) | > 5000 nM

Q: What measured IC50 goes with `O=C(Nc1cc(C(F)(F)F)ncc1F)N1[C@H]2CC[C@@H]1c1c[nH]c(=O)cc1C2` ?
A: 500 to 5000 nM

Q: What do we get for `N#Cc1ccc(NC(=O)N2[C@H]3CC[C@@H]2c2ccnc(F)c2C3)nc1` ?
A: 500 to 5000 nM

Q: What do we get for `O=C(Nc1ncc(C(F)(F)F)cn1)N1[C@H]2CC[C@@H]1c1ccnc(F)c1C2` ?
A: 500 to 5000 nM

Q: What do we get for `Cn1nc(NC(=O)N2[C@H]3CC[C@@H]2c2ccnc(F)c2C3)cc1C(F)(F)F` ?
A: > 5000 nM

Q: What do we get for `CCc1nnc(NC(=O)N2[C@H]3CC[C@@H]2c2ccnc(F)c2C3)s1` ?
A: 500 to 5000 nM

Q: What do we get for `O=C(Nc1nc(Cl)c(Cl)s1)N1[C@H]2CC[C@@H]1c1ccnc(F)c1C2` ?
A: < 500 nM

Q: What do we get for `N#Cc1cc(NC(=O)N2[C@H]3CC[C@@H]2c2ccnc(F)c2C3)no1` ?
A: < 500 nM

Q: What do we get for `O=C(Nc1nc(Cl)c(Cl)cc1F)N1[C@H]2CC[C@@H]1c1ccnc(F)c1C2` ?
A: 500 to 5000 nM

Q: What do we get for `O=C(Nc1ccc(Cl)c(Cl)n1)N1[C@H]2CC[C@@H]1c1ccnc(F)c1C2` ?
A: 500 to 5000 nM

Q: What do we get for `O=C(Nc1cc(C(F)(F)F)ncc1F)N1[C@H]2CC[C@@H]1c1ccnc(F)c1C2` ?
A: 500 to 5000 nM
